# study_system: UniProt Q13547
# Sequence (Q13547 whole entry): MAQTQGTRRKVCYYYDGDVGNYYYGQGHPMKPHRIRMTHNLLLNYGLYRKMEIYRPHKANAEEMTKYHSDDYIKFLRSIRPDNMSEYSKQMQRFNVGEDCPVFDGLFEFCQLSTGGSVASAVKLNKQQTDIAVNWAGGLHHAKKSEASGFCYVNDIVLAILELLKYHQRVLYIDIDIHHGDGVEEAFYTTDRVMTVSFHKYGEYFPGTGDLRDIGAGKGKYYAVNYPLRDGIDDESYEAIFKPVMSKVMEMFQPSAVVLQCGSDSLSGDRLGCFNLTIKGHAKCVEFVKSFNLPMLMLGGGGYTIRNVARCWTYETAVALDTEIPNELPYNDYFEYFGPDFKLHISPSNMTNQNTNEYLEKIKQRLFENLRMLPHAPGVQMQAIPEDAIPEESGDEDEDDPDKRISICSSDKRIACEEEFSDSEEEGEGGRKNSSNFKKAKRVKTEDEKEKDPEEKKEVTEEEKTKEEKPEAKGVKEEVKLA
# assay_info: Reporter displacement assay (HDAC1)
# experimental_setup: reporter probe displacement, Cheng Prusoff
# Experimental: [The procedure below names another target; the source lists this target under the same test.] HDAC2 containing a C-terminal HIS-Tag (Proteros) and fluorescently-labeled anti-HIS-antibody are diluted in one vial in assay buffer 50 mM Tris, pH 8.0, 1 mM DTT, 150 mM NaCl, and 0.01% Tween20. […] For Kd determination, percent probe displacement values are calculated for each compound concentration and plotted against the compound concentration. […]
pKd: −log10 of the molar value.
In this section we review reported pKd values for a set of molecules.

INSERT INTO measurements (molecule, property_name, value) VALUES
  ('CC(C)(C)OC(=O)N1CCC2CN(C(=O)Nc3cc(-c4ccc(F)cc4)ccc3N)CC2C1 (centres unmarked) [Compound 171]', 'pKd', '6.30 to 7.00'),
  ('Nc1ccc(-c2ccncn2)cc1NC(=O)N1Cc2ccncc2C1 [Compound 103]', 'pKd', '5.30 to 6.30'),
  ('CC(C)OC(=O)N1CC2CN(C(=O)Nc3cc(-c4ccc(F)cc4)ccc3N)CC2C1 (centres unmarked) [Compound 156]', 'pKd', '> 7.00');

Record Nc1ccc(-c2ccc(F)cc2)cc1NC(=O)N1CC2CN(C(=O)OC3CC3)CC2C1 (centres unmarked) [Compound 158] . Reported pKd: > 7.00

Record CC(C)(C)OC(=O)N1C2CCC1CN(C(=O)Nc1cc(-c3ccncc3)ccc1N)C2 [Compound 110] , field pKd: < 5.30

Just so you know, measured pKd for CC(=O)N1CC2CC1CN2C(=O)Nc1cc(-c2ccncc2)ccc1N (centres unmarked) [Compound 108] came out at < 5.30

molecule Nc1ccc(-c2ccncc2)cc1NC(=O)c1cn2c(n1)CNCC2 [Compound 123] , pKd observed: 6.30 to 7.00

Entry CCOC(=O)N1CC2CN(C(=O)Nc3cc(-c4ccc(F)cc4)ccc3N)CC2C1 (centres unmarked) [Compound 155] — recorded pKd = 6.30 to 7.00

The reported value for Nc1ccc(-c2ccc(F)cc2)cc1NC(=O)N1CC2CCC(C1)O2 [Compound 111] in terms of pKd is < 5.30

Looking up Nc1ccc(-c2ccccn2)cc1NC(=O)N1Cc2ccncc2C1 [Compound 146] , I found its pKd recorded as 6.30 to 7.00

The value of pKd measured for the molecule CC(C)CC(=O)N1CC2CN(C(=O)Nc3cc(-c4ccc(F)cc4)ccc3N)CC2C1 (centres unmarked) [Compound 160] turned out to be 6.30 to 7.00

For this molecule ( CC(C)(C)OC(=O)N1C2CCC1CN(C(=O)Nc1cc(-c3ccc(F)cc3)ccc1N)C2 [Compound 112] ), measured pKd is < 5.30

response.value for COCCN1CCC2(CCN(C(=O)Nc3cc(-c4ccncc4)ccc3N)CC2)C1 [Compound 136] (field: pKd) = > 7.00

The reported pKd of the molecule CC(C)(C)OC(=O)N1CCC2(CCN(C(=O)Nc3cc(-c4ccc(F)cc4)ccc3N)CC2)C1 [Compound 161] was > 7.00

get_value(item= CNC(=O)N1CCc2nc(C(=O)Nc3cc(-c4ccc(F)cc4)ccc3N)sc2C1 [Compound 152] , readout=pKd) returns > 7.00

Per the records, this molecule ( Nc1ccc(-c2ccc(OC(F)F)cc2)cc1NC(=O)N1Cc2ccncc2C1 [Compound 162] ) has pKd equal to > 7.00

Recorded pKd (molecule Cc1cc(F)ccc1-c1ccc(N)c(NC(=O)N2Cc3ccncc3C2)c1 [Compound 141] ): < 5.30

According to the records, this molecule Nc1ccc(-c2ccc(F)cc2)cc1NC(=O)N1CC2CNCC2C1 (centres unmarked) [Compound 114] displays pKd of < 5.30

// recorded pKd for Nc1ccc(-c2ccc(F)cc2F)cc1NC(=O)N1Cc2ccncc2C1 [Compound 133] : > 7.00

In plain terms, Cn1cc(-c2ccc(N)c(NC(=O)N3Cc4ccncc4C3)c2)cn1 [Compound 145] has a documented pKd of 6.30 to 7.00

Entry under test: Nc1ccc(-c2ccc(F)cc2)cc1NC(=O)N1CC2CN(C(=O)OC3CCC3)CC2C1 (centres unmarked) [Compound 159] . Its pKd was > 7.00

pKd reported for this molecule Nc1ccc(-c2ccc(F)c(Cl)c2)cc1NC(=O)N1Cc2ccncc2C1 [Compound 163] : 6.30 to 7.00

Entry under test: Nc1ccc(-c2ccncc2)cc1NC(=O)N1Cc2cncnc2C1 [Compound 100] . Its pKd was 6.30 to 7.00

Values were extracted from patent US10421756B2.
